Recorded values, source ChEMBL document CHEMBL5303573.

Test: The drug is tested on Bacteroides fragilis strain: ATCC43859 for biotransformation. The drug concentrations were measured before and after a 12-h incubation by liquid-chromatography-coupled mass spectrometry (LC–MS)
Conditions: 2 µM
readout_label: Bacterial Biotransformation

Guide cases for Bacterial Biotransformation, answers given:
>>> result("CCN(CC)CCNC(=O)c1cc(Cl)c(N)cc1OC [METOCLOPRAMIDE]")
"Compound NOT metabolized"
>>> result("CCCC1O[C@@H]2C[C@H]3[C@@H]4CCC5=CC(=O)C=C[C@]5(C)[C@H]4[C@@H](O)C[C@]3(C)[C@]2(C(=O)CO)O1 (stereo partly drawn) [BUDESONIDE]")
"Compound metabolized"
>>> result("CC(Oc1c(Cl)cccc1Cl)C1=NCCN1 (stereo not drawn) [LOFEXIDINE]")
"Compound metabolized"
>>> result("O=c1n(CCCN2CCN(c3cccc(Cl)c3)CC2)nc2ccccn12 [TRAZODONE]")
"Compound NOT metabolized"
>>> result("CCOc1ccccc1OCCN[C@H](C)Cc1ccc(OC)c(S(N)(=O)=O)c1.Cl [TAMSULOSIN HYDROCHLORIDE]")
"Compound NOT metabolized"

Reported Bacterial Biotransformation for CCC(COC(=O)c1cc(OC)c(OC)c(OC)c1)(c1ccccc1)N(C)C.O=C(O)/C=C\C(=O)O (stereo not drawn) was Compound NOT metabolized

Reported Bacterial Biotransformation for CCOC(=O)[C@H](CCc1ccccc1)N[C@H]1CCc2ccccc2N(CC(=O)O)C1=O [BENAZEPRIL] was Compound metabolized

Reported Bacterial Biotransformation for C[C@@H]1CC[C@H]2[C@@H](C)C(=O)O[C@@H]3O[C@@]4(C)CC[C@@H]1[C@]32OO4 [ARTEMISININ] was Compound metabolized
